All figures here come from patent US20180355059A1.

- Tested System: T1, recombinant human PCSK9-His protein (Immunogen A) (human, UniProt Q8NBP7 31-692, limits assumed, biotinylated in the ELISA assays)
- T1 construct: also called hPCSK9-His; His-tagged hPCSK9; not shown: His tag
- Procedure Summary: ELISA of PCSK9 binding to LDLR ECD; antibody 200 nM
The binders listed here are annotated with their OD450 nm.
Give the value, in units of OD450 nm, as a plain number.

# annotated cases, reported OD450 nm shown
152G2F7, fully human anti-PCSK9 antibody (antibody, human IgG1, V domains shown) VH: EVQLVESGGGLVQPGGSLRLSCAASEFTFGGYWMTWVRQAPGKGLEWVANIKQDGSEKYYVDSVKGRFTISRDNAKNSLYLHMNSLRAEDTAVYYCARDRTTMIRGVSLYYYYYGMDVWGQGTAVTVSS VL: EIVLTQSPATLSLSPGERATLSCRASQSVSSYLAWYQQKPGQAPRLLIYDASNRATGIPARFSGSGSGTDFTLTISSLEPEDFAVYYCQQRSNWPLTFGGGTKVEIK :: 1.32
76A1B11, fully human anti-PCSK9 antibody (antibody, human IgG1, V domains shown) VH: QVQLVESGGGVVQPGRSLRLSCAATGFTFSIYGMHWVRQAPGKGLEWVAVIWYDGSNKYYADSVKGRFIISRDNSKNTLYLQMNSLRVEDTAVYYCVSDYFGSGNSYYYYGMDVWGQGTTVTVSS VL: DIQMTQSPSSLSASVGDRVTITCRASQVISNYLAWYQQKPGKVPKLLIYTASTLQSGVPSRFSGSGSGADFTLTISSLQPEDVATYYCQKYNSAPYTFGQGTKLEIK :: 1.27
74C10A8, fully human anti-PCSK9 antibody (antibody, human IgG1, V domains shown) VH: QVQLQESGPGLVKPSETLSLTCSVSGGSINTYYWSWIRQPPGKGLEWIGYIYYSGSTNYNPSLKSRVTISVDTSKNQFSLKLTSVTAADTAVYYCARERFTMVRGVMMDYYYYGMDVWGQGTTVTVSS VL: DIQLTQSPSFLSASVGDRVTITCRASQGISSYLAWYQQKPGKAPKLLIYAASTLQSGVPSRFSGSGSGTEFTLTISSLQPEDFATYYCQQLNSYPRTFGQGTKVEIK :: 1.41

// below: OD450 nm requested for another binder
[Q] Supply OD450 nm value. Item: 139G1C5, fully human anti-PCSK9 antibody (antibody, human IgG1, V domains shown) VH: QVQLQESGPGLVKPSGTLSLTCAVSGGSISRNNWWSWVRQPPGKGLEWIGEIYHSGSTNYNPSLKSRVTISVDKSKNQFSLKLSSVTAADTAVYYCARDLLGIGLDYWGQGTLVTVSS VL: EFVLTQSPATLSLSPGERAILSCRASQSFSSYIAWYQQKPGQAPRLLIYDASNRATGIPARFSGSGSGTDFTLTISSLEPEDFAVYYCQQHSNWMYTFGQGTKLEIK
[A] 1.29
